Every entry's value here was drawn from ChEMBL document CHEMBL5113462.

system: UDP-galactopyranose mutase (Klebsiella pneumoniae) (UniProt Q48485)
Sequence (Q48485 whole entry): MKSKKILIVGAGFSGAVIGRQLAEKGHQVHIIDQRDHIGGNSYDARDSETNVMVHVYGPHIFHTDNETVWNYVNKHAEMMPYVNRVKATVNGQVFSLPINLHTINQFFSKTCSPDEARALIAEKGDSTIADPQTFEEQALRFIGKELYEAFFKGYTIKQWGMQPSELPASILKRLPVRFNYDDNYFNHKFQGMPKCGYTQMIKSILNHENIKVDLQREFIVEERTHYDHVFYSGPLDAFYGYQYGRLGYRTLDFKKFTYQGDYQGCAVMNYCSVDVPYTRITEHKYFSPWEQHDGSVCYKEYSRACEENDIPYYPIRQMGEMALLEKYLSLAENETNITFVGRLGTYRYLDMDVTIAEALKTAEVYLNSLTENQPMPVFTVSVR
test name: Inhibition of Klebsiella pneumoniae UGM expressed in Escherichia coli BL21(DE3) at 500 uM by Fluorescence polarization assay relative to control
measure: inhibition (%)

O=C(/C=C/c1ccccc1)N[C@@H](Cc1ccccc1)C(=O)O: 59
O=C(/C=C/c1ccccc1)N[C@@H](Cc1ccc(Cl)cc1)C(=O)O: 41
O=C(/C=C/c1ccccc1)N[C@@H](Cc1ccc(F)cc1)C(=O)O: 58
O=C(/C=C/c1ccccc1)N[C@@H](Cc1ccc(I)cc1)C(=O)O: 60
O=C(/C=C/c1ccc(O)c(O)c1)O[C@H](Cc1ccc(O)c(O)c1)C(=O)O [ROSMARINIC ACID]: 46
O=c1ccn([C@@H]2O[C@H](COP(=O)(O)OP(=O)(O)O)[C@@H](O)[C@H]2O)c(=O)[nH]1 [URIDINE_DIPHOSPHATE]: 63
O=C(/C=C/c1ccccc1)N[C@@H](Cc1ccc([N+](=O)[O-])cc1)C(=O)O: 59
O=C(/C=C/c1ccccc1)N[C@@H](Cc1ccc(Br)cc1)C(=O)O: 59
